- Test system: UACC-257 melanoma
- experiment_description: NCI-60 one-dose screen, 48 h (100 = growth as untreated, 0 = no growth, -100 = all killed)
- test_parameters: 10 µM
This is part of a sample that, as a whole, favours compounds with a hit. Of some 83,000 tested, about 20% had one in any assay.
measured_property: growth (%)
Your answer should be a plain number; it is taken to be in %.

Please look at this molecule and report its growth: "Cn1cnc([N+](=O)[O-])c1/C=C1\Oc2ccc(Br)cc2C1=O"
84.8

Answer with the recorded growth for the molecule listed here: "Cc1n[nH]c(C)c1N=Nc1cccc2c1C(=O)c1ccccc1C2=O"
111

Fill in growth for record "NS(=O)(=O)Oc1ccc(NC(=O)C2CCCCCC2)cc1"
100

Look up and state reported growth for COc1cc(CNC(=O)C2CSC3(C)c4ccccc4C(=O)N23)cc(OC)c1OC (stereo not drawn)
73.8

Look up and report measured growth for this entry: "N#Cc1ccc(C(=O)CSc2nccc(Nc3ccc(C(=O)O)cc3)n2)cc1"
110

Tell me growth reported for CC1=CC2C(C(O)CC3(C)C2CC(C)C32OCOC23COCO3)C2(C)C/C(=C/O)C(=O)C=C12 (stereo not drawn)
78.2

Hello, please tell me recorded growth for this one: "CC(=O)OC/C=C(/C)C[P+](c1ccccc1)(c1ccccc1)c1ccccc1"
69.7

Return the recorded growth value; entry: "C=C(C)[C@@H]1CC[C@]2(COCCC#N)CC[C@]3(C)[C@H](CC[C@@H]4[C@@]5(C)Cc6c([nH]c7ccccc67)C(C)(C)[C@@H]5CC[C@]43C)[C@@H]12"
116

Supply reported growth belonging to this molecule: "Cc1ccc(C)c(COc2cc(NC(=O)c3ccc4c(c3)OCO4)ccc2N(C)S(C)(=O)=O)c1"
66.6

Please list growth recorded for the molecule "CCn1cc(C(=O)O)c(=O)c2cc(F)c(N3CCNCC3)cc21"
106

Specify growth for "CN1CCN(CC(=O)Nc2cccc(-n3cc(-c4ccncc4)c(-c4ccc(Cl)c(O)c4)n3)c2)CC1" and stop.
24.9

Specify measured growth for "S=c1cnc2ccccc2[nH]1" .
99.1

Write down growth measured for item "Cc1c2c(nn1C(=O)c1nn(-c3ccc(Cl)cc3)cc1O)-c1ccccc1CC2"
-1.88

Supply recorded growth for "CSc1ccc(-c2cc(-c3ccc(NC(=O)CCCN4CCCC4)cc3)nc(-c3ccc(NC(=O)CCCN4CCCC4)cc3)c2)cc1" here.
95.3

Output growth of "COc1ccc(-c2nn(-c3cccc(Cl)c3)cc2-c2cc(-c3ccccc3)[nH]c(=O)c2C#N)cc1"
75.5

Tell me growth reported for CCOC(=O)C1C(C(=O)OCC)C2C(=O)C3C(C(=O)OCC)C(C(=O)OCC)C3C(=O)C12 (stereo not drawn)
108

Look up and state reported growth for "COc1ccc(/C(C#N)=C/c2ccccc2OC)cc1"
47.8

Supply growth value. Item: C=CCN(CC=C)C(=O)[C@H](CC)[C@@H]1CC[C@@H](C)[C@@H]([C@H](C)[C@@H](O)[C@@H](C)C(=O)[C@H](CC)C2O[C@]3(C=C[C@@H](O)[C@]4(CC[C@@](C)([C@H]5CC[C@](O)(CC)[C@H](C)O5)O4)O3)[C@H](C)C[C@@H]2C)O1 (stereo partly drawn)
7.88

----------
- System: HOP-92 NSCLC
- experiment_description: NCI-60 one-dose screen, 48 h
- test_parameters: 10 µM
Compounds without any hit were thinned out: in the full panel of roughly 83,000, 20% have a hit. Active and inactive are the calls of the source. How the source made its calls: active means growth percent below 10; inactive means the rest.
// classify into yes for active, no for inactive

Tell me the recorded outcome of this test for "CCN(CC)CCNc1ccc(C)c2sc3cc(Cl)ccc3c(=O)c12" .
no

Can you look up the reported call for "CCN1CCN(CCC(=O)Nc2cccc(-n3cc(-c4ccncc4)c(-c4ccc(Cl)c(OC)c4)n3)c2)CC1" for me?
yes

Dear colleague, could you share the recorded outcome for "N#Cc1c(-c2ccc(Cl)cc2)csc1NC(=O)Nc1ccc(Cl)c(C(F)(F)F)c1" when you have a moment?
yes

Record request — test call for "COc1ccc(C(=O)c2ccccc2CN2C(=O)c3ccccc3C2=O)cc1"
no

Name the outcome recorded for CCCCCOC(=O)Nc1nc(=O)n(C2O[C@H](C)[C@@H](O)[C@H]2O)cc1F (stereo partly drawn) in the assay.
no

Identify the outcome logged in this assay for the molecule shown: "O=C(Nc1ccc(OS(=O)(=O)c2ccccc2)cc1)C1CCCCC1"
no

Given "C=C(C)[C@@H]1CC[C@]2(COCCC#N)CC[C@]3(C)[C@H](CC[C@@H]4[C@@]5(C)Cc6c([nH]c7ccccc67)C(C)(C)[C@@H]5CC[C@]43C)[C@@H]12" , state the outcome it received in this test.
no

Dear all, I need the recorded test outcome for CCCN(CCC)C(=O)[C@H](CC)[C@@H]1CC[C@@H](C)[C@@H]([C@H](C)[C@@H](O)[C@@H](C)C(=O)[C@H](CC)C2O[C@]3(C=C[C@@H](O)[C@]4(CC[C@@](C)([C@H]5CC[C@](O)(CC)[C@H](C)O5)O4)O3)[C@H](C)C[C@@H]2C)O1 (stereo partly drawn) , thank you.
yes

----------
- Tested on: MDA-MB-435 melanoma
- experiment_description: NCI-60 one-dose screen, 48 h
- test_parameters: 10 µM
This is part of a sample that, as a whole, favours compounds with a hit. Of some 83,000 tested, about 20% had one in any assay. The source made the active and inactive calls. Rule for the calls: active = growth percent below 10; inactive = the rest.
Your response should consist of one outcome taken from yes = active, no = inactive

Write down the call the test reported for this compound. Item: "C=C/C(C)=C/C[C@]1(C)[C@H](C)[C@@H](OC(=O)CCC)[C@H](O)[C@@]23C(=C[C@H](OC)C[C@@H]12)[C@@H](OC(=O)CCC)O[C@H]3OC(C)=O"
yes

Recorded call for "COc1ccc(CCN2CCC(Nc3nc4ccccc4n3Cc3ccc(F)cc3)CC2)cc1" ?
yes

Hi, sorry to bother you, what did the test record for "O=[N+]([O-])c1cc(Cl)cc(Cl)c1O" ?
no

Recorded call for "COC(=O)CC[C@@H](C)[C@H]1CC[C@H]2[C@@H]3CC[C@@H]4C[C@H](O)CC[C@]4(C)[C@H]3C[C@H](O)[C@]12C" ?
no

Field: outcome | Entry: "O=C(c1ccccc1)N(C(=O)c1ccccc1)N1CCCC1"
no

// outcome(item) with item = N#CC1=C(N)Oc2cc(N)ccc2C1c1cccnc1 (stereo not given)
no

Fill in: this test's call for "COc1ccc(-c2nc(-c3nc4ccc(C)cc4[nH]3)cc3c2[nH]c2ccccc23)cc1" is ___
no

Per the assay record, what outcome was assigned to "CCn1cc(CNc2ccc(C(=O)Nc3ccc4ccccc4c3)cc2)c(C)n1" ?
no

Called result for CCCCCC(=O)O[C@]1(C(C)=O)CCC2C3CCC4=CC(=O)CC[C@]4(C)C3CC[C@@]21C (stereo not given in full)
no

Which outcome did this test record for the compound "Fc1ccc2[nH]cc(-c3nc(-c4ccsc4)cs3)c2c1" ?
no

Dear all, I need the recorded test outcome for CCc1cc(Cl)c(OC)c(C(=O)NCC2CCCN2CC)c1O (stereo not given) , thank you.
no

Called result for "O=C1/C=C/[C@@H](O)[C@@H]2C[C@@H](O)C[C@H]2/C=C/CCC[C@H](CCc2ccc(C(F)(F)F)cc2)O1"
yes

GET /call?item= "O=S(=O)(O)c1ccc(Cl)cc1" returns the recorded outcome of this test.
no

Which outcome was assigned to "Cc1ccc(S(=O)(=O)N(C)CCCCCC(=O)O)cc1" in this test?
no

For "O=C(O)c1cn(C2CC2)c2cc(N3CCN(C(=O)c4cc(-c5ccc(Cl)cc5)nc5ccccc45)CC3)c(F)cc2c1=O" , which call appears in the assay record?
no

Which outcome did this test record for the compound CN(C)CCC1(c2ccccc2)CCN(C)C1=O (stereo not given) ?
no

For OC[C@H]1OC([S-])[C@H](O)[C@@H](O)[C@@H]1O.[Au+] (stereo not given in full) , which call appears in the assay record?
no

Short answer needed: outcome of this test for "NC(=O)c1cccc(-n2ccc3cc(NC(=O)Nc4ccc(Cl)c(C(F)(F)F)c4)ccc32)n1" ?
no

Test call for this compound, please: CN1C(=O)C2(Nc3cc(Cl)ccc3S2)c2cc(Cl)ccc21 (stereo not given)
no

Assay outcome for "CCCCc1oc2ccccc2c1C(=O)c1cc(I)c(OCCN(CC)CC)c(I)c1" : what was it?
yes

----------
- Test system: ACHN renal
- experiment_description: NCI-60 one-dose screen, 48 h (100 = growth as untreated, 0 = no growth, -100 = all killed)
- test_parameters: 10 µM
Compounds without any hit were thinned out: in the full panel of roughly 83,000, 20% have a hit.
measured_property: growth (%)
Respond numerically; units are % and should not be typed.

Give measured growth for "O=S(=O)(Oc1ccc(-c2ccc3sccc3c2)cc1)c1ccc(F)cc1" (ACHN renal).
107

Write growth of "COc1cc(/C=C/c2cc(/C=C/c3ccc(O)c(OC)c3)[nH]c(=O)n2)ccc1O" ; system used: ACHN renal
89.4

System ACHN renal. Read-out growth. Item "COCCn1cc(-c2nc(-c3cccnc3)cs2)c2cc(F)ccc21" . Report value.
101

# return growth of CCCN1CN2C(=O)N3CN(CCC)CN4C(=S)N(C1)C2C34 (centres undefined) (system: ACHN renal)
94.4

Report growth under test system ACHN renal for Cc1c(O)c(=O)ccn1C1CCC(CC2CCC(n3ccc(=O)c(O)c3C)CC2)CC1 (centres undefined) .
35.7

Enter measured growth, system ACHN renal, for the compound shown: "O=C(CCc1nnc2sc(-c3cc(O)c(O)c(O)c3)nn12)c1nc2ccccc2[nH]1"
106

Fill in: growth on ACHN renal, entry "CC(C)(C)c1ccc(S(=O)(=O)N[C@H]2CC[C@H]3[C@@H]4CCc5cc(OS(=O)(=O)O)ccc5[C@H]4CC[C@]23C)cc1"
33.4

State, for ACHN renal, measured growth of the compound listed here: "CCOS(=O)(=O)c1c(C(C)C)cc(C(C)C)cc1C(C)C"
104

Report its growth with ACHN renal as the test system: "Cc1ccc(S(=O)(=O)N(C)CCCCCC(=O)O)cc1"
102

Please tell me the measured growth for "CCn1c(SCc2ccc(C)cc2)nnc1-c1nn(-c2ccc(Cl)cc2Cl)c(-c2ccc(Cl)cc2)c1C" ; system: ACHN renal.
2.32

Give measured growth for "COc1ccc(-c2n[nH]nc2-c2cc(OC)c(OC)c(OC)c2)cc1" (ACHN renal).
41.2

Jot down growth (ACHN renal) of "CCOC(=O)c1sc2ncnc(Nc3ccc(NC(=O)Nc4ccc(Cl)cc4)cc3)c2c1C" .
64.4

Give growth for "N#Cc1ccc(C(=O)CSc2nccc(Nc3ccc(C(=O)O)cc3)n2)cc1" tested on ACHN renal.
107

GET growth where system = ACHN renal and item = "O=C1c2ccccc2C(=O)c2c1ccc(C(Br)Br)c2Cl"
-74.1

Look up and report measured growth (ACHN renal) for the following compound: C=C(NC(=O)C(=C)NC(=O)c1csc(C2=NC3c4csc(n4)C4NC(=O)c5csc(n5)C(C(C)(O)C(C)O)NC(=O)C5CSC(=N5)C(=CC)NC(=O)C(C(C)O)NC(=O)c5csc(n5)C3(CC2)NC(=O)C(C)NC(=O)C(=C)NC(=O)C(C)NC(=O)C(C(C)CC)NC2C=Cc3c(C(C)O)cc(nc3C2O)C(=O)OC4C)n1)C(N)=O (centres undefined)
23.6

Tell me its growth on ACHN renal: "COc1cc(-c2nn(-c3ccc(NC(=O)NCCCNC(=O)c4ccccc4)cc3)cc2-c2ccncc2)ccc1Cl"
23.7

System ACHN renal. Read-out growth. Item "NC(N)=N/N=C(\N=Nc1ccccc1)c1ccc(Cl)cc1" . Report value.
25.1

Would you please give the reported growth of C#C[C@]1(O)CCC2C3CCc4cc(OC5CCCC5)ccc4C3CC[C@@]21C (some centres undefined) with ACHN renal?
73.3

// fetch growth; item: "CCOC(=O)N/N=C/c1ccc(OC)c(OC)c1" ; system: ACHN renal
106

# return growth for "CCN(CC)CC(=O)N(CC)c1ccc(C)c(Cl)c1" , test system: ACHN renal
117

For ACHN renal, give growth of the listed compound: "CCCc1nc(C(C)(C)O)c(C(=O)O)n1Cc1ccc(-c2ccccc2-c2nn[nH]n2)cc1"
93.5

GET growth | system: ACHN renal | item: "CCN(CC)CCN1c2nc3ccccc3cc2Sc2cc3ccccc3nc21"
24.9

GET growth | system: ACHN renal | item: "COc1cc(/C=C/c2cc(/C=C/c3ccc(O)c(OC)c3)nc(N)n2)ccc1O"
13.5

State recorded growth with ACHN renal, entry "O=C(O)c1ccc(-n2cc(CNc3ccc(Cl)cc3)c(-c3ccccc3)n2)cc1" , no comment.
79.5

GET growth | system: ACHN renal | item: "CCCCCCCCCCCCCCCCCC[n+]1ccc2c(C)c3c(c(C)c2c1)c1cc(O)ccc1n3CC"
25.7

State growth on ACHN renal. Entry: CCCCCOC(=O)Nc1nc(=O)n(C2O[C@H](C)[C@@H](O)[C@H]2O)cc1F (some centres undefined)
99.6

Provide growth, system ACHN renal, entry "COc1cc(-c2nn(-c3cccc(NC(=O)NCCNC(=O)c4cccc(C(F)(F)F)c4)c3)cc2-c2ccncc2)ccc1Cl"
48.4

State growth on ACHN renal. Entry: COc1ccc(/C(=N\N)C(=O)c2ccccc2)cc1 (tested in a mixture with another compound)
98.3

Provide ACHN renal growth reading for C/C(=C/CCC(C)[C@@H]1CC[C@]2(C)C3=C(CC[C@@]12C)[C@@]1(C)CCC(=O)C(C)(C)[C@@H]1CC3)C(=O)O (some centres undefined) .
-93.5

With ACHN renal as the test system, provide measured growth for this compound: "CN1CCN(CC(=O)Nc2cccc(-n3cc(-c4ccncc4)c(-c4ccc(Cl)c(O)c4)n3)c2)CC1"
44.7

Under ACHN renal, report growth for "CC(C)(C)OC(=O)CN1CCc2c(sc3ncnc(N/N=C/c4cccc5ccccc45)c23)C1"
15.7

// output growth; input "CCOC(=O)c1sc2ncnc(Nc3ccc4c(cnn4C(=O)Nc4ccc(C)c(Cl)c4)c3)c2c1C" ; system ACHN renal
107

GET growth | system: ACHN renal | item: CC(=O)C1N=NCC1c1ccccc1 (centres undefined)
95.8

Find growth for NC(N)=N/N=C(\c1ccccc1)C(O)c1ccccc1 (centres undefined) on ACHN renal and write it down.
109

Please report the measured growth for "COc1ccc2cc(-c3nc4ccccc4s3)c(Cl)nc2c1OC" tested on ACHN renal.
96.6

Give growth only, for "COc1cc(N)c2ncccc2c1SC" , using ACHN renal data.
104

Look up ACHN renal data: growth of "CN(C)c1nc(N)c2nccnc2n1" , then report it.
105

Report value only: growth, ACHN renal, "c1cnc2[nH]cc(-c3nc(-c4ccsc4)cs3)c2c1"
85.3

Fetch value of growth on ACHN renal for CCC(c1ccc(OC)cc1)C(CC)c1ccc(O)c(CN2CCN(C)CC2)c1 (centres undefined) .
69
